System: B16 F1 cells
Assay: Inhibition of melanin production in B16 F1 cells with β-MSH induction
Assay type: cell-based, mouse
Settings: Table 3, mouse B16 F1 cells, β-MSH induction; read-out: MSH Induced Melanin Inhibition IC50
Excerpt: Color development was visually monitored each morning.
Reported IC50 values for a set of molecules
Please append the unit to your numeric answer.

COc1ccc(O)c(CCCc2ccc(O)cc2OC)c1	105 µM

Challenge: Would you mind telling me what IC50 value was observed for O=c1cc(CO)occ1O [Kojic acid, kojic acid, reference compound] ?
Response given: 67 µM

Challenge: Would you mind telling me what IC50 value was observed for COc1ccc(CCCc2ccc(O)cc2O)c(OC)c1C [UP302a] ?
Response given: 40 µM
